# Tested on: RCC4
# assay-explanation: Antiproliferative activity against human RCC4 cells incubated for 48 hrs by XTT assay
# Type: functional, cell-based
# protocol-conditions: RCC4, 48 h
value-kind: IC50 (µM)

mol_smiles=O=C(Nc1cccc(Cl)c1)Nc1nc2ccc(-c3ccoc3)cc2s1 censoring_operator=> experimental_value=10
mol_smiles=Cc1ccc(-c2ccc3nc(NC(=O)Nc4cccc(Cl)c4)sc3c2)s1 censoring_operator=> experimental_value=10
mol_smiles=Nc1ccc2nc(NC(=O)Nc3cccc(Cl)c3)sc2c1 censoring_operator== experimental_value=20
mol_smiles=Cn1cc(-c2ccc3nc(NC(=O)Nc4cccc(Cl)c4)sc3c2)cn1 censoring_operator=> experimental_value=10
mol_smiles=COc1ccc(NC(=O)Nc2nc3ccc([N+](=O)[O-])cc3s2)cc1 censoring_operator== experimental_value=20

Numbers sourced from ChEMBL document CHEMBL5532720.
